Test system: Aβtotal
Assay: Screening for γ-secretase-modulating activity, Method 1: Aβtotal sandwich ELISA on SKNBE2 cell media
Assay type: cell-based
Settings: Table 3a; SKNBE2 cells carrying APP 695 wild type, 18 hours; XLfit, top/bottom fixed to 100 and 0, hill slope 1
Procedure: Screening was carried out using SKNBE2 cells carrying the APP 695—wild type, grown in Dulbecco's Modified Eagle's Medium/Nutrient mixture F-12 (DMEM/NUT-mix F-12) (HAM) provided by Gibco (cat no. 31330-38) containing 5% Serum/Fe supplemented with 1% non-essential amino acids. Cells were grown to near confluency. […] To quantify the amount of Aβtotal in the cell supernatant, samples and standards were added to a 6E10-coated plate. […]
Catalogue of IC50 values

{"Molecule": "COc1cc(Nc2cccc3oc(Cc4ccc(F)cc4)nc23)ccc1-n1cnc(C)c1 [Compound 82]", "Target or test system": "Aβtotal", "Readout kind": "IC50", "Result": "> 3 µM"}
{"Molecule": "COc1cc(Nc2cccc3c2nc(OC(C)C)n3C)ccc1-n1cnc(C)c1 [Compound 31]", "Target or test system": "Aβtotal", "Readout kind": "IC50", "Result": "29.7 µM"}
{"Molecule": "Cc1ncn(-c2ccc(Nc3cccc4c3nc(-c3ccc(F)cc3)n4C(C)C)cc2)n1.Cl.Cl [Compound 73]", "Target or test system": "Aβtotal", "Readout kind": "IC50", "Result": "> 3 µM"}
{"Molecule": "COc1cc(Nc2cccc3oc(-c4ccc(F)cc4)nc23)ccc1-n1cnc(C)c1 [Compound 80]", "Target or test system": "Aβtotal", "Readout kind": "IC50", "Result": "> 30 µM"}
{"Molecule": "Cc1cn(-c2ccc(Nc3nccc4c3nc(-c3ccc(F)cc3F)n4C)cc2F)cn1 [Compound 104]", "Target or test system": "Aβtotal", "Readout kind": "IC50", "Result": "> 3 µM"}

Q: // returns reported IC50 for input Cc1ncn(-c2ccc(Nc3cccc4c3nc(-c3ccc(F)cc3)n4C(C)C)cn2)n1 [Compound 76]
Result: > 3 µM

Q: // returns reported IC50 for input COc1cc(Nc2cccc3c2nc(Cc2ccc(F)cc2)n3C)ccc1-n1cnc(C)c1 [Compound 81]
Result: > 1 µM

Q: // returns reported IC50 for input COc1cc(Nc2cccc3oc(C(C)(C)C)nc23)ccc1-n1cnc(C)c1 [Compound 30]
Result: > 3 µM

Q: // returns reported IC50 for input COc1cc(Nc2cccc3c2nc(-c2cccc(Cl)c2)n3C)ccc1-n1ncnc1C [Compound 96]
Result: > 1 µM

The origin of these recorded values is patent US8772504B2.
